assay: Lipid nanoparticle size by dynamic light scattering (Malvern Zetasizer Nano ZS); type: physicochemical; details: LNP: cationic lipid/DSPC/cholesterol/PEG-lipid 50:10:38.5:1.5, hEPO mRNA; Table 3
experimentalReadout: size nm (nm)

- compound: "CCCCCCCC(CCCCCCC)COC(=O)CCCCCN(CCCCCC(=O)OCC(CCCCCCC)CCCCCCC)CCN(CCC)C1CCC(O)CC1 (stereo not drawn) [Compound 71]"
  quantitativeResult: 91.13
- compound: "CCCCCCCCC(CCCCCCCC)CNC(=O)CCCCCN(CCCCCC(=O)OCC(CCCCCCCC)CCCCCCCC)CCN(CCO)C1CCCC1 [Compound 136]"
  quantitativeResult: 61.17
- compound: "CCCCCCCCC(CCCCCCCC)COC(=O)CCCCCN(CCCCCC(=O)OCC(CCCCCCCC)CCCCCCCC)CCN(CCC)C1CCC(O)CC1 (stereo not drawn) [Compound 70]"
  quantitativeResult: 77.54
